Recorded pKd values for a group of binders are listed next.
Target: SCRIB_3, Q14160
Sequence (Q14160 999-1103): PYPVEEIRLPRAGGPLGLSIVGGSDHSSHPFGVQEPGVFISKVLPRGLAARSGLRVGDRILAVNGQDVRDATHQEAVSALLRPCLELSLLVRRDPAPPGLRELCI
Test: holdup assay
Design: key: below the threshold = too weak to quantify, mostly under pKd 3.1 to 4
Details: plain residues with an end cap or a label only (N-terminal biotin on a linker: ado-ado)
Give the figure by itself; no unit, no explanation.

Q) Please report the measured pKd for QLKSGRDSTV [TMEM178A, Q8NBL3]
A) 3.48

Q) Look up and state reported pKd for TKEIPNCTSV [SORCS3, Q9UPU3]
A) 4.24

FYI, the data here is from paper PMC9482650.
